Each entry below carries its reported %Inh.
system: TRKC; construct: gene NTRK3; details: concentration: 1 μM, replicates: in singlicate; n = 1;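 also: KINOMEscan kinase panel screen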
Entry rule: numbers only, all in %.

>  <structure>
O=C(c1ccc(-c2cc(-c3c[nH]nc3-c3ccccn3)ccn2)cc1)N1CCCC1

>  <%Inh, %>
0

$$$$

[in] Looking for the measured %Inh of `CCc1nc(-c2cccc(N(C)S(=O)(=O)c3ccccc3)c2)c(-c2ccnc(Nc3ccc(N4CCN(C(C)=O)CC4)nc3)n2)s1` , can you help?
[out] 0

[in] Looking for the measured %Inh of `Cc1ccc(O)cc1Nc1cc(C(F)(F)F)nc2ccc(-c3ccncc3)cc12` , can you help?
[out] 0

[in] Looking for the measured %Inh of `Cl.Cn1ccc(-c2cccc(Nc3ccnc4cc(-c5nccs5)ccc34)c2)n1` , can you help?
[out] 43
